B1: P2RY14 (parent)
chain: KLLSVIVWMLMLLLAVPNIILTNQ

Variants of: B1
Test: protein stability index of a GFP-peptide fusion (GPS, HEK-293T) (PSI 1-6); higher = more stable;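 further: lentivirally expressed fusions sorted by FACS into six bins by GFP to DsRed ratio, PSI derived from sequencing read proportions per bin multiplied by bin number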
Conditions: c terminus: a fixed tail appended
endpoint.name: protein stability index

>>> observed_measurement("L21C")
3.7
>>> observed_measurement("L13Y")
3.48
>>> observed_measurement("V7P")
2.8
>>> observed_measurement("L10W")
2.31
>>> observed_measurement("W8H")
2.85
>>> observed_measurement("I6F")
2.8
>>> observed_measurement("L10N")
1.95
>>> observed_measurement("I20N")
2.31
>>> observed_measurement("N23R")
1.92
>>> observed_measurement("L12M")
3.06
>>> observed_measurement("A15M")
3.03
>>> observed_measurement("V5E")
2.42
>>> observed_measurement("A15P")
2.35
>>> observed_measurement("L14V")
1.32
>>> observed_measurement("L10V")
2.99
>>> observed_measurement("T22I")
2.32
>>> observed_measurement("Q24H")
2.8
>>> observed_measurement("V16E")
2.6
>>> observed_measurement("V16D")
2.52
>>> observed_measurement("N18H")
3.81
>>> observed_measurement("I20V")
2.79
>>> observed_measurement("Q24G")
2.91
